- Tested on: MV-4-11 cells
- protocol-description: Inhibition of tumor cell proliferation (CellTiter-Glo)
- Assay type: cell-based
- experimental-context: Homo sapiens, MV4-11; MV-4-11 cells, 72 h, CellTiter-Glo; read-out: IC50 of inhibitory activity of tumor cell proliferation
outcome-measure: IC50

INSERT INTO assay_data (molecule, result) VALUES
  ('O=C(C#CC1CCCCN1)NCc1ccc2c(c1)CN(C1CCC(=O)NC1=O)C2=O (centres unmarked) [Compound 64]', '> 100 nM'),
  ('O=C(C#Cc1ccc(C(=O)O)cc1Cl)NCc1ccc2c(c1)CN(C1CCC(=O)NC1=O)C2=O (centres unmarked) [Compound 103]', '10 to 100 nM'),
  ('O=C(C#Cc1cccc(O)c1)NCc1ccc2c(c1)CN(C1CCC(=O)NC1=O)C2=O (centres unmarked) [Compound 19]', '1 to 10 nM'),
  ('O=C(C#Cc1cccc(C(=O)O)c1)NCc1ccc2c(c1)CN(C1CCC(=O)NC1=O)C2=O (centres unmarked) [Compound 76]', '> 100 nM');

Dear colleague, could you please provide IC50 for the molecules listed below?
1. O=C(C#Cc1ccc(Cl)cc1C(=O)O)NCc1ccc2c(c1)CN(C1CCC(=O)NC1=O)C2=O (centres unmarked) [Compound 90]
2. O=C(C#Cc1ccc([N+](=O)[O-])cc1F)NCc1ccc2c(c1)CN(C1CCC(=O)NC1=O)C2=O (centres unmarked) [Compound 47]
3. O=C(C#Cc1ccc(F)nc1)NCc1ccc2c(c1)CN(C1CCC(=O)NC1=O)C2=O (centres unmarked) [Compound 38]
4. O=C(C#CC(O)c1ccccc1)NCc1ccc2c(c1)CN(C1CCC(=O)NC1=O)C2=O (centres unmarked) [Compound 115]

1. > 100 nM
2. > 100 nM
3. 1 to 10 nM
4. > 100 nM

* * *

- Test system: MV-4-11 cells
- protocol-description: Inhibition of tumor cell proliferation (CellTiter-Glo)
- Format: cell-based
- experimental-context: Homo sapiens, MV4-11; MV-4-11 cells, 72 h, CellTiter-Glo; read-out: IC50 of inhibitory activity of tumor cell proliferation
- Method: MV-4-11 cells were diluted with medium (RPM1640+10% FBS+1% PS) and plated at 4000 cells/well in a white-walled clear-bottom 96-well plate. MV-4-11 cells were plated and incubated in a 5% CO2, 37° C. incubator for 2 hours. […] After 10 min of incubation at room temperature, the luminescence was measured by a microplate reader, and the cell-free wells were used as the background wells. […]
outcome-measure: IC50

Here is how some molecules turned out for IC50.
INSERT INTO assay_data (molecule, result) VALUES
  ('O=C(C#Cc1ccc2[nH]ncc2c1)NCc1ccc2c(c1)CN(C1CCC(=O)NC1=O)C2=O (stereo not shown) [Compound 107]', '10 to 100 nM'),
  ('O=C(C#Cc1ccc(Cl)nc1)NCc1ccc2c(c1)CN(C1CCC(=O)NC1=O)C2=O (stereo not shown) [Compound 59]', '10 to 100 nM'),
  ('O=C(C#Cc1ccc(O)c(Cl)c1)NCc1ccc2c(c1)CN(C1CCC(=O)NC1=O)C2=O (stereo not shown) [Compound 101]', '10 to 100 nM'),
  ('O=C(C#CCO)NCc1ccc2c(c1)CN(C1CCC(=O)NC1=O)C2=O (stereo not shown) [Compound 22]', '> 100 nM');

Go through the list and state IC50 for each entry.
1. Nc1ccccc1C#CC(=O)NCc1ccc2c(c1)CN(C1CCC(=O)NC1=O)C2=O (stereo not shown) [Compound 83]
2. O=C(C#Cc1ccc2ncncc2c1)NCc1ccc2c(c1)CN(C1CCC(=O)NC1=O)C2=O (stereo not shown) [Compound 127]
3. CC(C)(C)OC(=O)c1ccccc1C#CC(=O)NCc1ccc2c(c1)CN(C1CCC(=O)NC1=O)C2=O (stereo not shown) [Compound 69]

1. 1 to 10 nM
2. > 100 nM
3. < 1 nM
